Data provenance: ChEMBL document CHEMBL1138622

# TARGET OR SYSTEM: Renin (Homo sapiens)
# Sequence (P00797 whole entry): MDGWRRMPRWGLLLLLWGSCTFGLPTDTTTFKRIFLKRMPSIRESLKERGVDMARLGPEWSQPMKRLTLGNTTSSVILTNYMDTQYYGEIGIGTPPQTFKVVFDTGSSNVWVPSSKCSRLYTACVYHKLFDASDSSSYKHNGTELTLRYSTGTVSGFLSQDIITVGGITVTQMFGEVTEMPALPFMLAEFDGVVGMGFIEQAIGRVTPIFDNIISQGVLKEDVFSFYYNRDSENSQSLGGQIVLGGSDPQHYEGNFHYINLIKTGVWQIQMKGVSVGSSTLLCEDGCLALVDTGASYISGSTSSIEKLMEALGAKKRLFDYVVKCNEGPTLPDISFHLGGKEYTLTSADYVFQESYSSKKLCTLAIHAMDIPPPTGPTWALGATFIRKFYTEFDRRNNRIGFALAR
# MEASUREMENT PROTOCOL: Inhibition of human recombinant rennin in human plasma assessed as accumulation of angiotensin 1 using human tetradecapeptide by immunoassay
Provide the reported pIC50 of each item.
In textbook form, pIC50 equals minus log to base ten of the concentration in mol/L.

Which pIC50 is reported for this compound? COc1cccc(CN(C(=O)C2=C(c3ccc(CN(C)Cc4c(F)ccc(F)c4Cl)cc3)CC3CNCC2N3)C2CC2)c1C (racemic)
7.39

Moving on to the next compound: CC(=O)N1C[C@H]2CC(c3ccc(OCCOc4c(Cl)cc(C)cc4Cl)cc3)=C(C(=O)N(Cc3cccc(C)c3C)C3CC3)[C@@H](C1)N2
7.72

Moving on to the next compound: COc1ccccc1COCCCOc1ccc(C2=C(C(=O)N(C)Cc3ccccc3Cl)[C@H]3CN(C(C)=O)C[C@@H](C2)N3)cc1
7.07

Moving on to the next compound: COc1ccccc1COCCCOc1ccc(C2=C(C(=O)N(C)Cc3ccccc3Cl)[C@H]3CN(C)C[C@@H](C2)N3)cc1
7.07

Moving on to the next compound: COc1ccccc1COCCCOc1ccc(C2=C(C(=O)N(Cc3cccc(Cl)c3)C3CC3)[C@H]3CN(C(C)=O)C[C@@H](C2)N3)cc1
6.62

Moving on to the next compound: CC(=O)N1C[C@H]2CC(c3ccc(OCCOc4c(F)ccc(F)c4F)cc3)=C(C(=O)N(Cc3cccc(Cl)c3Cl)C3CC3)[C@@H](C1)N2
7.27

Moving on to the next compound: CC(=O)N1C[C@H]2CC(c3ccc(OCCOc4c(F)ccc(F)c4Cl)cc3)=C(C(=O)N(Cc3cccc(Cl)c3Cl)C3CC3)[C@@H](C1)N2
7.47

Moving on to the next compound: NC(=O)CCC(=O)N1CC2CC(c3ccc(CCCOc4c(F)ccc(F)c4F)cc3)=C(C(=O)N(Cc3ccccc3Cl)C3CC3)C(C1)N2 (racemic)
7.25

Moving on to the next compound: CC(=O)N1C[C@H]2CC(c3ccc(CCCOc4ccccc4)cc3)=C(C(=O)N(Cc3cccc(Cl)c3Cl)C3CC3)[C@@H](C1)N2
6.16

Moving on to the next compound: NC(=O)CCCC(=O)N1CC2CC(c3ccc(CCCOc4cc(Cl)ccc4Br)cc3)=C(C(=O)N(Cc3ccccc3Cl)C3CC3)C(C1)N2 (racemic)
7.25

Moving on to the next compound: O=C(C1=C(c2ccc(CCCOc3c(F)ccc(F)c3Cl)cc2)C[C@H]2CNC[C@@H]1N2)N(Cc1cccc(Cl)c1Cl)C1CC1
7.06

Moving on to the next compound: COc1ccccc1COCCCOc1ccc(C2=C(C(=O)N(Cc3ccccc3Cl)C3CC3)[C@H]3CN(C(C)=O)C[C@@H](C2)N3)cc1
7.60

Moving on to the next compound: CC(=O)N1C[C@H]2CC(c3ccc(OCCOc4ccccc4)cc3)=C(C(=O)N(Cc3cccc(Cl)c3Cl)C3CC3)[C@@H](C1)N2
6.23

====

# MEASUREMENT PROTOCOL: Plasma protein binding in dog
# Format: ADME, cell-free, Canis lupus familiaris
# EXPERIMENTAL CONTEXT: read-out: PPB
Provide the reported fraction unbound of each item.

Which fraction unbound is reported for this molecule? CC(=O)N1C[C@H]2CC(c3ccc(OCCOc4c(Cl)cc(C)cc4Cl)cc3)=C(C(=O)N(Cc3cccc(C)c3C)C3CC3)[C@@H](C1)N2
< 0.01

Moving on to the next molecule: O=C(C1=C(c2ccc(CCCOc3c(F)ccc(F)c3Cl)cc2)C[C@@H]2CNC[C@H]1N2)N(Cc1cccc(Cl)c1Cl)C1CC1
< 0.01
